B1: glmS ribozyme (parent)
chain: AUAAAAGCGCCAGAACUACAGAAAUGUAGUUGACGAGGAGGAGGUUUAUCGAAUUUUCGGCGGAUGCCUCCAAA

- Variants of: B1
- PROCEDURE_TEXT: self-cleavage kobs at 40 uM GlcN6P; higher = faster cleavage; RNA array
- REPORTED_CONDITIONS: with glucosamine-6-phosphate
Variants at the floor of the assay were thinned out.
As shown below, each of these variants has a reported self-cleavage kobs at 40 uM GlcN6P value.

# RESIDUES, self-cleavage kobs at 40 uM GlcN6P
measured = [
    ("AUAAAAGCGCCAGAACUACAGAAAUGUAGUUGACGAGGAUGAGGAUUAUCGAAUUUUCGGCGGAUGCCUCCAAA", "8.3e-05 s⁻¹"),
]

Prompt: Report measured self-cleavage kobs at 40 uM GlcN6P; entry is "AUAAAAGCGCCAGAACUACAGAAAUGUAGUUGUCGAGGAGGAAGUUUAUCGAAUUUUCGGCGGAUGCCUCCAAA"
Completion: < 1e-05 s⁻¹

Prompt: Report measured self-cleavage kobs at 40 uM GlcN6P; entry is "AUAAAAGCGCCCGGACUACAGAAAUGUAGUUGACGAGGAGGAGGUUUAUCGAUUUUUCGGCGGAUGGCUCCAAA"
Completion: 9.17e-05 s⁻¹

Prompt: Report measured self-cleavage kobs at 40 uM GlcN6P; entry is "AUAAAAGCGCCAGAACUACAGAAAUGUAGUUGACGAGGAGGAGGUAUAUCGAAUAUUCGGCGGAUGCCUCCAAA"
Completion: 5.91e-05 s⁻¹

Prompt: Report measured self-cleavage kobs at 40 uM GlcN6P; entry is "AUAAAAGCGCCAGAACUACAGAAAUGUAGUUGACGAGGCCGAGGUUAAUCGAAUUGUCGGCGGAUGCCUCCAAA"
Completion: < 1e-05 s⁻¹

Prompt: Report measured self-cleavage kobs at 40 uM GlcN6P; entry is "AUAAAAGAGCCAGAACUACAGAAAUGUAUUUGACGAGGAGGAGGUUUAUCGAAUUUACGGCCGAUGUCUCCAAA"
Completion: < 1e-05 s⁻¹

Prompt: Report measured self-cleavage kobs at 40 uM GlcN6P; entry is "AUAAAAGCGCCAGAGCUACAGAAAUGUAGUUGACGAGGAGGAGGUUUAUCGACUUUUCGGCGGAUGCCUCCAAA"
Completion: 0.000205 s⁻¹

Prompt: Report measured self-cleavage kobs at 40 uM GlcN6P; entry is "AUAAUAGCGCCAGAACUACAGAAAUGUAGUUGACGAGGACGAGGUUUAUCGAAUUUUCGGCGGAUGCCUCCAAA"
Completion: 0.000123 s⁻¹

Prompt: Report measured self-cleavage kobs at 40 uM GlcN6P; entry is "AUAAAAGCGCCAGAACUACAGAAAUGUAGUUGACGGGCAGGAGGUUUAUCGAAUAUUCGGCGGAUGCCUCCAAA"
Completion: < 1e-05 s⁻¹

Prompt: Report measured self-cleavage kobs at 40 uM GlcN6P; entry is "AUAAAAGCGCCAAAACUACAGAAAUGUAGUUGACGAGGAGGAGGUUUAUCGAAUUUUCCGCGGAUGCCUCCAAA"
Completion: < 1e-05 s⁻¹

Prompt: Report measured self-cleavage kobs at 40 uM GlcN6P; entry is "AUAAAAGCGCCAGAACUACAGAAAUGUAGUUGAUGACGAGGAGGUUUAUCAAAUUUUCGGCGGAUGCAUCCAAA"
Completion: < 1e-05 s⁻¹

Ref: the supplement of paper PMC7125110
